These measurements were taken from patent US20220259289A1.

Some binders, each annotated with its measured ELISA CD137 (RLU).
target: T1, recombinant biotinylated CD137 protein (Fc-fusion protein, R&D Systems 838-4B) (human, UniProt Q07011 24-186, biotinylated, sites not stated); experiment: ELISA, lysate on biotinylated CD137-Fc
T1 construct: Bought Fc fusion; also called CD137-Fc

- binder: "ISOP193GR9P1H2 (designed binder, not shown: small tags and cut ends) LPAPKNLVVSRVTEDSARLSWTAPDAAFDSFEIPYIEVETIGEAIWLHVPGSERSYDLTGLKPGTEYSVGINGVKGGHTSNPLSARFTT"
  unit-abbreviation: "RLU"
  ELISA CD137 (RLU): "5.31e+06"
- binder: "ISOP193BR9P1B12 (designed binder, not shown: small tags and cut ends) LPAPKNLVVSRVTEDSARLSWPDESRPVRFDSFLIQYQESEKVGEAIVLTVPGSERSYDLTGLKPGTEYTVSIYGVLRPWIYATNDSNPLSAIFTT"
  unit-abbreviation: "RLU"
  ELISA CD137 (RLU): "6.55e+06"
- binder: "ISOP193ER9P1F11 (designed binder, not shown: small tags and cut ends) LPAPKNLVVSRVTEDSARLSWTAPDAAFDSFAIQYQEYVAHGEAIVLTVPGSERSYDLTGLKPGTEYHVRISGVKGGGVSWPLSAISTT"
  unit-abbreviation: "RLU"
  ELISA CD137 (RLU): "1.12e+07"
- binder: "ISOP193HR9P1A10 (designed binder, not shown: small tags and cut ends) LPAPKNLVVSRVTEDSARLSWTAPDAAFDSFDIYYLEPWGGGEAIVLTVPGSERSYDLTGLKPGTEYWVTIYGVKVCLGSNPLSAIFTT"
  unit-abbreviation: "RLU"
  ELISA CD137 (RLU): "1.27e+07"
